Test system: 786-0 (Kidney Carcinoma)
experimentSummary: combination Emax (second highest fraction inhibited in the dose matrix, 72 h); higher = more inhibition; extreme values may be limits of the assay
metricName: combination Emax

| molecule | targetSystem | metricName | observedMeasurement |
| --- | --- | --- | --- |
| CC1(C)CCC(CN2CCN(c3ccc(C(=O)NS(=O)(=O)c4ccc(NCC5CCOCC5)c([N+](=O)[O-])c4)c(Oc4cnc5[nH]ccc5c4)c3)CC2)=C(c2ccc(Cl)cc2)C1 [Venetoclax] + C[C@@H]1COCCN1C2=NC(=NC(=C2)C3(CC3)[S@](=N)(=O)C)C4=C5C=CNC5=NC=C4 [AZD6738] (first compound max 1 µM, 7x7, partner max 10 µM) | 786-0 (Kidney Carcinoma) | combination Emax | 0.712 |
| C=CCn1c(=O)c2cnc(Nc3ccc(N4CCN(C)CC4)cc3)nc2n1-c1cccc(C(C)(C)O)n1 [AZD1775] + O=C(c1cc(Cc2n[nH]c(=O)c3ccccc23)ccc1F)N1CCN(C(=O)C2CC2)CC1 [Olaparib] (first compound max 1 µM, partner max 10 µM) | 786-0 (Kidney Carcinoma) | combination Emax | 0.543 |
| CC1(C)CCC(CN2CCN(c3ccc(C(=O)NS(=O)(=O)c4ccc(NCC5CCOCC5)c([N+](=O)[O-])c4)c(Oc4cnc5[nH]ccc5c4)c3)CC2)=C(c2ccc(Cl)cc2)C1 [Venetoclax] + CCN(CCO)CCCOc1ccc2c(Nc3cc(CC(=O)Nc4cccc(F)c4)[nH]n3)ncnc2c1 [AZD2811] (first compound max 1 µM, 7x7, partner max 1 µM) | 786-0 (Kidney Carcinoma) | combination Emax | 0.159 |
